# credit: patent US20250353873A1

System: human APOE RNA
TEST DESCRIPTION: Activity in APOE C57BL/6NTac-Apoeem7250 knock-in mice, single ICV bolus, 8 weeks (Example 11)
Type: in vivo
RECORDED CONDITIONS: cortex; single ICV bolus 300 μg; 8 weeks post treatment; normalized to mouse Ppia
Strand notation (5' to 3'): a small letter for the sugar, then the base; units joined by * are phosphorothioate-linked, units joined directly phosphodiester-linked; [ ] holds rarer units or linkages, { } end groups; capitals alone tell only the bases. [ms] = mesyl phosphoramidate linkage; e = 2'-O-(2-methoxyethyl) (MOE); k = constrained ethyl (cEt); [5mC] = 5-methylcytosine; d = 2'-deoxy (DNA)
OBSERVABLE: APOE RNA (% control) Cortex
Express your answer in % control, writing the number without its unit.

* 1652917: 6-10-4 MOE gapmer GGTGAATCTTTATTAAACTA, linkages sooooossssszsszzoss (antisense eG*eGeTeGeAeAdT*d[5mC]*dT*dT*dT*dA[ms]dT*dT*dA[ms]dA[ms]eAe[5mC]*eT*eA) [compound 1652917] | 107
* 1693101: 6-10-4 MOE gapmer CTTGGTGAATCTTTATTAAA, linkages sssssozzzssssszssss (e[5mC]*eT*eT*eG*eG*eTdG[ms]dA[ms]dA[ms]dT*d[5mC]*dT*dT*dT*dA[ms]dT*eT*eA*eA*eA) [compound 1693101] | 58
* 1693082: 6-10-4 MOE gapmer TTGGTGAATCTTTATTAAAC, linkages ssssoozzszssszsssss (eT*eT*eG*eG*eTeGdA[ms]dA[ms]dT*d[5mC][ms]dT*dT*dT*dA[ms]dT*dT*eA*eA*eA*e[5mC]) [compound 1693082] | 113

*Q* Bench note: what APOE RNA (% control) Cortex did 1652916: 5-10-5 MOE gapmer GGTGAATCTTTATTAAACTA, linkages soooszzzsssssszooss (antisense eG*eGeTeGeA*dA[ms]dT[ms]d[5mC][ms]dT*dT*dT*dA*dT*dT*dA[ms]eAeAe[5mC]*eT*eA) [compound 1652916] show?
*A* 128

*Q* How about this substance: 1693045: 5-10-5 MOE gapmer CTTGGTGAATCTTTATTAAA, linkages ssssozzzzssssssssss (antisense e[5mC]*eT*eT*eG*eGdT[ms]dG[ms]dA[ms]dA[ms]dT*d[5mC]*dT*dT*dT*dA*eT*eT*eA*eA*eA) [compound 1693045]
*A* 88

*Q* Follow-up entry: 1681006: 5-10-5 MOE gapmer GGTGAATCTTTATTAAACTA, linkages ssssszsssszzszzssss (antisense eG*eG*eT*eG*eA*dA[ms]dT*d[5mC]*dT*dT*dT[ms]dA[ms]dT*dT[ms]dA[ms]eA*eA*e[5mC]*eT*eA) [compound 1681006]
*A* 85

*Q* Also check 1810063: mixed MOE/cEt gapmer CTTGGTGAATCTTTATTAAAC, sugar eeeeeeddddddddddkkeee, linkages ssoosszzzssssszsooss (e[5mC]*eT*eTeGeG*eT*dG[ms]dA[ms]dA[ms]dT*d[5mC]*dT*dT*dT*dA[ms]dT*kTkAeA*eA*e[5mC]) [compound 1810063]
*A* 43

*Q* Now the substance 1681003: 5-10-5 MOE gapmer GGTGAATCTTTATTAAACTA, linkages soooszsssszzszsooss (antisense eG*eGeTeGeA*dA[ms]dT*d[5mC]*dT*dT*dT[ms]dA[ms]dT*dT[ms]dA*eAeAe[5mC]*eT*eA) [compound 1681003]
*A* 90
